// data source = the supplement of paper PMC10981050

Items are presented alongside their recorded cell viability.
Tested on: OCI-AML2;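 note: after 48 h exposure read by CellTiter-Glo luminescence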
Assay: cell viability relative to vehicle control; higher = less cytotoxic
Details: 10 µM; SRSF2 genotype: P95H/wt

Sample answers from the record:
[[record]]
molecule = "CN(C)CCCCC(=O)Nc1ccc(NC(=S)NC(=O)c2ccc(C(C)(C)C)cc2)cc1"
endpoint_result = "1.27%"

[[record]]
molecule = "CC(=O)c1cc2c(o1)C(=O)c1ccccc1C2=O"
endpoint_result = "0.4%"

[[record]]
molecule = "COc1cc(Nc2ncc3c(n2)-c2ccc(Cl)cc2C(c2c(F)cccc2OC)=NC3)ccc1C(=O)O"
endpoint_result = "43.5%"

[[record]]
molecule = "Cc1cc(Nc2cc(N3CCN(C)CC3)nc(Sc3ccc(NC(=O)C4CC4)cc3)n2)n[nH]1"
endpoint_result = "14.4%"

[[record]]
molecule = "CCCCCCCCCCCCCCCCCCCCCC(=O)O"
endpoint_result = "91.8%"

[[record]]
molecule = "COc1ccc(/C=C/C(=O)Nc2ccccc2C(=O)O)cc1OC"
endpoint_result = "113%"


Per the record, CNC(=O)Nc1ccc(-c2nc(N3CC4CCC(C3)O4)c3cnn(C4CCC5(CC4)OCCO5)c3n2)cc1 has cell viability of 29%

Per the record, CC1(C)O[C@@H]2C[C@H]3[C@@H]4CCC5=CC(=O)C=C[C@]5(C)[C@H]4[C@@H](O)C[C@]3(C)[C@]2(C(=O)CO)O1 [Desonide] has cell viability of 104%

Per the record, CC(C)(CCCCCC(O)CCCCCC(C)(C)C(=O)O)C(=O)O has cell viability of 97.5%

Per the record, COC(=O)C=Cc1ccc(O)c(OC)c1 has cell viability of 104%

Per the record, CCOC(=O)c1cnc2ccc(-c3cncc(NS(=O)(=O)c4ccccc4)c3)cn12 has cell viability of 2.77%
